Listed here: items and their measured Plant response rating, Velvetleaf.
# Test system: velvetleaf
# EXPERIMENT: Test A pre-/postemergence herbicide test
# Format: in vivo, Abutilon theophrasti
# CONDITION_INFO: Postemergence, 2000 g ai/ha; 0 to 100 scale, 0 no effect, 100 complete control
// no unit, no text: just the number

Below, each entry is followed by its recorded Plant response rating, Velvetleaf result.
SMI	PARAMETER	MEASURED
CCOc1cccc(NC(=O)c2cn(C(C)(C)C)nc2C)c1	Plant response rating, Velvetleaf	15
CCN1CCc2c(NC(=O)c3cc(C(C)(C)C)nn3CC)cccc2C1=O	Plant response rating, Velvetleaf	55
CCOc1cccc(NC(=O)c2cc(C(C)(C)C)nn2CC)c1	Plant response rating, Velvetleaf	75

In the following, a different molecule is considered.
Ask: Give a short answer stating reported Plant response rating, Velvetleaf for CCn1nc(C(C)(C)C)cc1C(=O)Nc1cccc(C(C)=O)c1 .
Result: 70
